- Protocol: chemical genetic growth profiling, strain panel (AID 1159580);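 also: tested at 20 µM; growth read once vehicle control cultures reached saturation at 30 °C; 1 = growth at the plate median or of vehicle wells; lower values mean less growth of the strain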
- Reported Conditions: S. cerevisiae deletion strains, growth OD, locus YML120C, strain ndi1, hits give low values
Among all 5,500 compounds or so, about 2,000 (36%) were called active. About 18% were inconclusive and are not listed. Some of the results follow.
So basically, if normalized growth comes in under 1 it's 1, and if it's 1 or more it's -1.

Answered cases to consult:
| Compound | Category |
| --- | --- |
| C=C1CC[C@H](O)C/C1=C/C=C1\CCC[C@]2(C)C([C@H](C)/C=C/[C@H](C)C(C)C)CC[C@@H]12 (some centres undefined) | -1 |
| COc1ccc2c(c1)[C@@]1(C)CCC(=O)C[C@H]1CC2 | 1 |

Please look at the following compound next.
Answer whether the compound COC(=O)C1[C@H]2C[C@H]3c4[nH]c5ccccc5c4CCN3C[C@@H]2CC[C@@H]1O (some centres undefined) has normalized growth strictly less than 1
1
